Reference source for all entries: patent US8835466B2

Quick reference for Tumour volume, overall values (Mean) among some molecules
System: ASB XIV cells (pulmonary squamous cell carcinoma)
ASSAY INFO: Effect of isomers and BLAS on in vivo tumour growth, ASB XIV tumours (Example 8)
Design: species or system Balb/c mice
EXPERIMENTAL CONTEXT: day 29 after tumour inoculation; 260 ng/mouse i.p. days 6, 7 and 14
Unit mm^3 implied. Number only.

- MOLECULE: "Br.N[C@@]1(C[n+]2ccccc2)C[C@@H](C(=O)O)NC1=O.[Br-] (single isomer, unassigned; isomer 1) [isomer 1]"
  METRIC NAME: "Tumour volume, overall values (Mean)"
  READOUT UNIT: "mm^3"
  READOUT VALUE: 733.26

Entry Br.N[C@]1(C[n+]2ccccc2)C[C@H](C(=O)O)NC1=O.[Br-] (single isomer, unassigned; isomer 4) [isomer 4] , Tumour volume, overall values (Mean) reported as 451.55

For Br.N[C@@]1(C[n+]2ccccc2)C[C@H](C(=O)O)NC1=O.[Br-] (single isomer, unassigned; isomer 2) [isomer 2] the molecule record lists Tumour volume, overall values (Mean) as 913.90

Query Br.N[C@]1(C[n+]2ccccc2)C[C@@H](C(=O)O)NC1=O.[Br-] (single isomer, unassigned; isomer 3) [isomer 3] yields Tumour volume, overall values (Mean) of 529.37
